experimental_details: self-splicing fitness, log relative to wild type (ln ratio); higher = more splicing; Tetrahymena group I intron in knt gene, E. coli kanamycin selection, DiMSum; sequences stand for … in CUCUCU…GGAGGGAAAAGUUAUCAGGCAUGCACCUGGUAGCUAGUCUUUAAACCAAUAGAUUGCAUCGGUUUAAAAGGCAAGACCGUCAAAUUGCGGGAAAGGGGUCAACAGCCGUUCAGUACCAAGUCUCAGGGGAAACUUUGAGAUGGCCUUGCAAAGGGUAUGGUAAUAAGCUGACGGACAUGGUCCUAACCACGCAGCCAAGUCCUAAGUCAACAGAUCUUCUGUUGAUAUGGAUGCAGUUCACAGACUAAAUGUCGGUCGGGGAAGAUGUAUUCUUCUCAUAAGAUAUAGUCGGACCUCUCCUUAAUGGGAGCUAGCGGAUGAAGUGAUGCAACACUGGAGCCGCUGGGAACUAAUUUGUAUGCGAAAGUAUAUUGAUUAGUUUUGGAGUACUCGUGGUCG;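 also: selection with 25 µg/mL kanamycin versus none on LB agar overnight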
experimental_context: 37 °C
Respond with TRUE for self-splicing fitness (ln) values of -0.3 and above, FALSE for values below.

INSERT INTO results (construct_sequence, class_assignment) VALUES
  ('GAUCAGCAAUAUUACGGUUG', 'FALSE'),
  ('ACCCAGCAAUAUUACGGAAA', 'TRUE'),
  ('UCCCAGCAAUAUUACGCCCU', 'FALSE'),
  ('AUAUAGCAAUAUUACGGGCU', 'FALSE'),
  ('CACUAGCAAUAUUACGAGCA', 'FALSE'),
  ('GUUCAGCAAUAUUACGCGUU', 'TRUE'),
  ('GGCAAGCAAUAUUACGCACU', 'FALSE'),
  ('AAACAGCAAUAUUACGGCCG', 'FALSE'),
  ('UAUAAGCAAUAUUACGGCAC', 'FALSE'),
  ('UUCAAGCAAUAUUACGGCCU', 'TRUE'),
  ('GAGCAGCAAUAUUACGAGAC', 'FALSE'),
  ('AAAUAGCAAUAUUACGAUUA', 'TRUE'),
  ('AAAAAGCAAUAUUACGGAUG', 'FALSE'),
  ('UGAAAGCAAUAUUACGCUCA', 'TRUE'),
  ('GGAUAGCAAUAUUACGGAAU', 'FALSE'),
  ('AUUUAGCAAUAUUACGCGAU', 'FALSE');
